- Test system: Plasmodium falciparum
- assay-protocol: GSK_TCMDC: Inhibition of Plasmodium falciparum Dd2 in whole red blood cells, using parasite LDH activity as an index of growth. Test compounds present at 2uM
- Assay type: functional
reported-property: Inhibition (%)
Provide only the numeric value, understood in %.

// worked examples, Inhibition included
- molecule: "COc1cc(-c2nnc(SCC(=O)Nc3cc(C)on3)n2C)cc(OC)c1O"
  endpoint-value: 2
- molecule: "COc1cccc(-c2cc(-c3ccc(NC(=O)c4ccccc4)cc3)c3c(N)ncnc3n2)c1"
  endpoint-value: 98

Proceed to the following item.
So for Cc1cc(NCCc2ccccc2)nc(NC(=N)Nc2ccc(Cl)cc2)n1 , the logged Inhibition turned out to be 100

====

Documented Inhibition across a set of compounds
- Tested on: HepG2
- assay-protocol: GSK_TCMDC: Percent inhibition of human HepG2 cell line. Test compounds present at 10uM.
- Format: functional
Provide only the numeric value, understood in %.

- compound: "OC(CNC1CCCCC1)Cn1c2ccc(I)cc2c2cc(I)ccc21 (configuration not stated)"
  units-symbol: "%"
  Inhibition: 10
- compound: "CN(C)Cc1ccc(-c2ccc3c(Nc4ccc(Oc5ccccc5)cc4)ccnc3c2)o1"
  units-symbol: "%"
  Inhibition: 10
- compound: "O=C(O)c1ccc2c(c1)N(C(=O)CNCc1ccc(F)cc1)CC(=O)N2CCCc1ccccc1"
  units-symbol: "%"
  Inhibition: 1

So for N#Cc1ccc(-c2ccc(C(=O)NCCCCN3CCC(c4ccc5c(c4OCc4ccccn4)CCCC5)CC3)cc2)cc1 , the logged Inhibition turned out to be 37

So for O=C(Nc1cccc(-c2cccc(-c3nc4cc(C(F)(F)F)ccc4[nH]3)c2)c1)c1c[nH]cn1 , the logged Inhibition turned out to be 14

So for Nc1nc(N)c2cc(NC(=O)c3ccc(Cl)c(Cl)c3)ccc2n1 , the logged Inhibition turned out to be 100

So for CC(C)NC(=N)NN=Cc1ccc(Cl)c(Cl)c1 , the logged Inhibition turned out to be 0

So for CN(C)Cc1cccc2nc(-c3csc(Cc4cc(Cl)ccc4OCc4ccccc4)n3)[nH]c12 , the logged Inhibition turned out to be 14

So for Cc1cc2c(NC(=O)NC3CCN(CCc4cccc(Cl)c4)CC3)cccc2cn1.Cl , the logged Inhibition turned out to be 12

====

Documented Inhibition across a set of compounds
- Test system: Plasmodium falciparum
- assay-protocol: GSK_TCMDC: Inhibition of Plasmodium falciparum 3D7 in whole red blood cells, using parasite LDH activity as an index of growth. Test compounds present at 2uM
- Type: functional
Provide only the numeric value, understood in %.

// worked examples, Inhibition included
- compound: "Cc1cc(NCCC(=O)Nc2ccccc2)nc(NCCc2ccccc2)n1.O=C(O)C(F)(F)F"
  Inhibition [%]: 99
- compound: "COc1ccc2[nH]ccc(=NN=CC=Cc3ccccc3)c2c1"
  Inhibition [%]: 100
- compound: "NC(=O)c1ccc(NCC(=O)Nc2cccc(-c3cccc(-c4nc5ccccc5[nH]4)c3)c2)cc1"
  Inhibition [%]: 99
- compound: "O=C(Nc1ccc(C(F)(F)F)cc1)c1cccc(S(=O)(=O)NCC2CCCN(CC3CCCCC3)C2)c1.O=C(O)C(F)(F)F (stereo not drawn)"
  Inhibition [%]: 97
- compound: "CC1CC1C(=O)NC1CCN(CC2(c3ccccc3)CCCCC2)CC1 (stereo not drawn)"
  Inhibition [%]: 97
- compound: "O=C(/C=C/c1cccc(Cl)c1)N1CCC(C(O)CN2CCC3(CC2)CN(C(=O)/C=C/c2cccc(Cl)c2)c2ccccc23)CC1 (stereo not drawn)"
  Inhibition [%]: 91

So for CCn1c(Sc2ccc([N+](=O)[O-])c(C#N)c2)nnc1-c1cccc(Cl)c1 , the logged Inhibition turned out to be 89

So for Cl.N#CCc1ccc(Nc2nccc(Nc3ccc(Oc4ccccc4)cc3)n2)cc1 , the logged Inhibition turned out to be 98

====

- System: Plasmodium falciparum
- assay-protocol: GSK_TCMDC: Inhibition of Plasmodium falciparum 3D7 in whole red blood cells, using parasite LDH activity as an index of growth. Test compounds present at 2uM
- Type: functional
Documented Inhibition across a set of molecules
Provide only the numeric value, understood in %.

- molecule: "CN1CCC(NC(=O)c2cccc(Nc3cc(Nc4cccc(Br)c4)ncn3)c2)CC1"
  target-entity: "Plasmodium falciparum"
  reported-property: "Inhibition"
  endpoint-value: 94
- molecule: "CCN1CCC(N(Cc2ccc(-c3ccc(C(F)(F)F)cc3)cc2)C(=O)Cn2c(CCc3cccc(F)c3F)cc(=O)c3cn(C)nc32)CC1.O=C(O)C(O)C(O)C(=O)O"
  target-entity: "Plasmodium falciparum"
  reported-property: "Inhibition"
  endpoint-value: 95
- molecule: "O=C(NCc1cccc(F)c1)c1ccc(O)c(-c2cc(Cl)cc(Cl)c2)c1"
  target-entity: "Plasmodium falciparum"
  reported-property: "Inhibition"
  endpoint-value: 99
- molecule: "CC1CCCN(c2ccc(NC(=O)c3cccs3)cc2[N+](=O)[O-])C1 (centres undefined)"
  target-entity: "Plasmodium falciparum"
  reported-property: "Inhibition"
  endpoint-value: 96
- molecule: "CN1CCC(NCc2ccc(-c3cccc(-c4nc5ccccc5[nH]4)c3)cc2)CC1.O=C(O)C(F)(F)F"
  target-entity: "Plasmodium falciparum"
  reported-property: "Inhibition"
  endpoint-value: 100

Response field Inhibition (Plasmodium falciparum) for item Oc1ccc(Nc2ccnc3cc(Cl)ccc23)cc1 : 100

Response field Inhibition (Plasmodium falciparum) for item CCCNC(=O)c1ccc(N2CCC(c3ccccc3C)CC2)nc1.O=C(O)C(F)(F)F : 86

Response field Inhibition (Plasmodium falciparum) for item Cc1nc(C(=O)N2CCCC[C@H]2CNC(=O)c2ccc(-c3ccc(N4CCCC4=O)cc3C)cc2)c(-c2ccc(F)cc2)s1 : 98

Response field Inhibition (Plasmodium falciparum) for item COc1cc(N(Cc2ccc(F)cc2)C(=O)c2ccc(-c3ccccc3)cc2)ccc1OCCN1CCCC1.Cl : 93

====

Documented Inhibition across a set of compounds
- Test system: Plasmodium falciparum
- assay-protocol: GSK_TCMDC: Inhibition of Plasmodium falciparum Dd2 in whole red blood cells, using parasite LDH activity as an index of growth. Test compounds present at 2uM
- Format: functional
Provide only the numeric value, understood in %.

// worked examples, Inhibition included
- compound: "Cc1cc(F)ccc1Nc1nc(N(C)c2ccccc2)c2cc(OCCCN(C)C)ccc2n1"
  Inhibition, %: 49
- compound: "CC(=O)Nc1nc(C(=O)Nc2ccc(-c3ccc(-c4nc5cccc(C)c5[nH]4)cc3)cc2)cs1"
  Inhibition, %: 53
- compound: "CCNc1cc(C(=O)NC(Cc2ccccc2)C(O)CNC2CCSCC2)cc(N2CCCC2=O)c1 (stereo not drawn)"
  Inhibition, %: 98

So for COCCNCc1cccc(C#Cc2cc3ncnc(Nc4ccc(OCc5cccc(F)c5)c(Cl)c4)c3s2)n1 , the logged Inhibition turned out to be 52

So for O=S(=O)(c1ccc(Oc2ccccc2)cc1)N(CCC(O)(C(F)(F)F)C(F)(F)F)Cc1cccc(O)c1 , the logged Inhibition turned out to be 99

So for O=C(O)C(F)(F)F.c1ccc2c(c1)CN(CC1CCOCC1)CC1(CCN(Cc3c[nH]c4cnccc34)CC1)O2 , the logged Inhibition turned out to be 7

So for COc1c(C(=O)NC2CCN(Cc3ccccc3)C2)cnc2ccccc12.Cl (stereo not drawn) , the logged Inhibition turned out to be 12

So for Br.Cc1cc(F)ccc1Nc1nc(N(C)c2ccccc2)c2cccc(O)c2n1 , the logged Inhibition turned out to be 81

So for Cc1cc(C2CCN(CCCCNC(=O)c3ccc(-c4ccc(C#N)cc4)cc3)CC2)c(C)cc1O , the logged Inhibition turned out to be 96

So for CN(CCN1CCC(c2c[nH]c3ccccc23)CC1)C(=O)OCCCCCNC(=O)/C=C/c1ccc(Cl)c(Cl)c1 , the logged Inhibition turned out to be 44

So for CC(=NNC(S)=NC(C)(C)C)c1ccccn1 , the logged Inhibition turned out to be 100

So for CCN(CC)CCN(Cc1ccc(-c2ccc(C(F)(F)F)cc2)cc1)C(=O)Cn1c(CCc2cc(F)ccc2F)nc(=O)c2ccccc21.O=C(O)C(O)C(O)C(=O)O , the logged Inhibition turned out to be 52

So for Cc1cc(N[C@@H](Cc2ccccc2)C(=O)NCCOc2ccccc2)nc(NCC2CCCCC2)n1.O=C(O)C(F)(F)F , the logged Inhibition turned out to be 75

So for Cc1cc(N2CCCC2)nc(Nc2ccc(NC(=O)c3ccccc3F)cc2)n1 , the logged Inhibition turned out to be 44

So for Clc1cc(Cl)c2cc(CNCCCNc3ccc4ccccc4n3)[nH]c2c1.O=C(O)C(F)(F)F , the logged Inhibition turned out to be 54

So for CC(C)(C)Oc1ccc(C[C@@H]2NC3(C(=O)N(Cc4ccc(Cl)c(Cl)c4)c4ccccc43)C3C(=O)N(c4ccc(Br)cc4)C(=O)C32)cc1 (stereo partly drawn) , the logged Inhibition turned out to be 25

So for C[C@H](Cc1ccc(C[C@@H](C)NC[C@H](O)c2cccc(Cl)c2)cc1)NC[C@H](O)COc1ccccc1.Cl , the logged Inhibition turned out to be 60

So for COc1ccc2nccc([C@@H](O)CN3CCC(NCc4cc5ccccc5[nH]4)CC3)c2c1.CS(=O)(=O)O , the logged Inhibition turned out to be 41

So for NC(=O)c1cc2nc(Nc3ccc(F)cc3)nc(NC3CCC3)c2[nH]1.O=CO , the logged Inhibition turned out to be 100

So for COc1cccc(NC(=O)Nc2ccc(Nc3nc(C)cc(N4CCCC4)n3)cc2)c1 , the logged Inhibition turned out to be 100

So for Cc1c(NCCCNCc2cc(Cl)cc(Cl)c2Cl)[nH]c2ccccc2c1=O.Cl , the logged Inhibition turned out to be 86

So for Cc1cc(NC2CCCC2)nc(Nc2ccccc2C)n1 , the logged Inhibition turned out to be 20

So for COc1ccc2nccc([C@@H](O)CN3CCC(NC(=O)c4ccc(-c5ccccc5)s4)CC3)c2c1 , the logged Inhibition turned out to be 81
